Assign normalized growth to each entry below.
- TEST NAME: chemical genetic growth profiling, strain panel (AID 1159580);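 further: tested at 20 µM; growth read once vehicle control cultures reached saturation at 30 °C; 1 = growth at the plate median or of vehicle wells; lower values mean less growth of the strain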
- PARTICULARS: S. cerevisiae deletion strains, growth OD, locus YOR290C, strain snf2, active compounds read low
In all, about 5,500 compounds went through this assay and about 2,000 (36%) were called active. Another 18% or so got no clear call; they are omitted. This is one part of the list.

Query :: Write down normalized growth measured for item O=C(O)CNCP(=O)(O)O
Result :: 1.02 (inactive)

Query :: Write down normalized growth measured for item CCOP(=S)(OCC)Oc1ccc2c(C)c(Cl)c(=O)oc2c1
Result :: 0.928 (inactive)

Query :: Write down normalized growth measured for item COc1ccc(-c2cc(C(F)F)nn2-c2ccc(S(N)(=O)=O)cc2)cc1F
Result :: 1.01 (inactive)

----------
Assign normalized growth to each entry below.
- TEST NAME: chemical genetic growth profiling, strain panel (AID 1159580)
- PARTICULARS: S. cerevisiae deletion strains, growth OD, locus YOL006C, strain TOP1, active compounds read low
Out of some 5,500 compounds screened, about 2,000 (36%) were called active. Roughly 18% stayed inconclusive and do not appear here. Some of the results follow.
# output: bare number, no unit

Query :: Write down normalized growth measured for item O=C(O)CCCCC1SCC2NC(=O)NC21 (centres undefined)
Result :: 1.09

Query :: Write down normalized growth measured for item S=C(NCCCn1ccnc1)Nc1cc(Cl)ccc1Cl
Result :: 0.938

Query :: Write down normalized growth measured for item O=C(O)CCCCCCCCCCCCC1C=CCC1 (centres undefined)
Result :: 0.764

Query :: Write down normalized growth measured for item Cc1ccc(Cl)cc1NC(=S)NCCO
Result :: 1.03

----------
Assign normalized growth to each entry below.
- TEST NAME: chemical genetic growth profiling, strain panel (AID 1159580)
- PARTICULARS: S. cerevisiae deletion strains, growth OD, locus YCL069W, strain vba3, active compounds read low
The campaign covered roughly 5,500 compounds. About 2,000 (36%) were called active. About 18% were inconclusive and are not listed. The list shows a part of the results.
# output: bare number, no unit

Query :: Write down normalized growth measured for item COc1ccc(-c2cc(C(F)F)nn2-c2ccc(S(N)(=O)=O)cc2)cc1F
Result :: 1

Query :: Write down normalized growth measured for item O=C1CN(/N=C\c2ccc([N+](=O)[O-])o2)C(=O)N1
Result :: 0.956

Query :: Write down normalized growth measured for item O=C(NC(=O)c1c(F)cccc1F)Nc1cc(Cl)c(OC(F)(F)C(F)C(F)(F)F)cc1Cl (stereo unspecified)
Result :: 0.99

Query :: Write down normalized growth measured for item CC(=O)O[C@H]1CC[C@@]2(C)C(=CCC3C2CC[C@]2(C)C(=O)CCC32)C1 (stereo partly specified)
Result :: 0.951

Query :: Write down normalized growth measured for item C#C[C@]1(O)CCC2C3CCc4cc(OC)ccc4C3CC[C@@]21C (stereo partly specified)
Result :: 0.976

Query :: Write down normalized growth measured for item CC[C@@H](C(=O)[C@@H](C)[C@@H](O)[C@H](C)[C@@H]1O[C@@H]([C@@H](CC)C(=O)O)CC[C@@H]1C)[C@H]1OC2(C=C[C@@H](O)[C@]3(CC[C@@](C)([C@H]4CC[C@](O)(CC)[C@H](C)O4)O3)O2)[C@H](C)C[C@@H]1C (stereo partly specified)
Result :: 0.892

Query :: Write down normalized growth measured for item COc1cc2c(cc1O)CC1c3c(cc(O)c(OC)c3-2)CCN1C (stereo unspecified)
Result :: 1.01

Query :: Write down normalized growth measured for item COc1cc(C)c2c(c1C=O)Oc1c(c(C)c(O)c3c1C(O)OC3=O)OC2=O (stereo unspecified)
Result :: 1.01

Query :: Write down normalized growth measured for item COc1ccccc1OCC(O)CN1CCN(CC(=O)Nc2c(C)cccc2C)CC1 (stereo unspecified)
Result :: 1.02

Query :: Write down normalized growth measured for item CC12CCC3C(CC=C4CC(O)CCC43C)C1CCC2=O (stereo unspecified)
Result :: 0.94

Query :: Write down normalized growth measured for item CCCNC(C)C(=O)Nc1ccccc1C (stereo unspecified)
Result :: 1.01

----------
- TEST NAME: chemical genetic growth profiling, strain panel (AID 1159580)
- PARTICULARS: S. cerevisiae deletion strains, growth OD, locus YKL085W, strain MDH1, active compounds read low
The campaign covered roughly 5,500 compounds. About 2,000 (36%) were called active. About 18% were inconclusive and are not listed. This is one part of the list.
MEASURED ATTRIBUTE: normalized growth
# output: bare number, no unit

Query :: Write down normalized growth measured for item CCC(CCC(C)C1CCC2C3CC=C4C[C@@H](OC(C)=O)CC[C@]4(C)C3CC[C@]12C)C(C)C (some centres not stated)
Result :: 0.989

Query :: Write down normalized growth measured for item COc1ccccc1-c1cc(=O)c2c(OC)cccc2o1
Result :: 0.982

Query :: Write down normalized growth measured for item COc1ccccc1-c1cc(=O)c2cccc(OC)c2o1
Result :: 0.977

Query :: Write down normalized growth measured for item Nc1nc2c(c(=O)[nH]1)N(C=O)C(CNc1ccc(C(=O)N[C@@H](CCC(=O)O)C(=O)O)cc1)CN2 (some centres not stated)
Result :: 0.979

Query :: Write down normalized growth measured for item Cc1ccc(C(C)C)cc2c(C)ccc1-2
Result :: 1

Query :: Write down normalized growth measured for item Nc1nc(N)c2nc(CNc3ccc(C(=O)NC(CCC(=O)O)C(=O)O)cc3)cnc2n1 (configuration not stated)
Result :: 0.986

Query :: Write down normalized growth measured for item O=C(/C=C/c1ccc(O)c(O)c1)O[C@@H]1C[C@](O)(C(=O)O)C[C@@H](O)[C@H]1O
Result :: 1

----------
Assign normalized growth to each entry below.
- TEST NAME: chemical genetic growth profiling, strain panel (AID 1159580);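 further: tested at 20 µM; growth read once vehicle control cultures reached saturation at 30 °C; 1 = growth at the plate median or of vehicle wells; lower values mean less growth of the strain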
- PARTICULARS: S. cerevisiae deletion strains, growth OD, locus YNL209W, strain ssb2, active compounds read low
The campaign covered roughly 5,500 compounds. About 2,000 (36%) were called active. Inconclusive results (about 18%) are left out. The list shows a part of the results.
# output: bare number, no unit

Query :: Write down normalized growth measured for item C[C@H](COc1ccccc1)N[C@H](C)[C@H](O)c1ccc(O)cc1
Result :: 0.994

Query :: Write down normalized growth measured for item OC1CCCCC1N1CCC(c2ccccc2)CC1 (stereo not drawn)
Result :: 0.993

Query :: Write down normalized growth measured for item CC[C@]12CCCN3CCc4c(n(c5ccccc45)C(=O)C1)[C@@H]32
Result :: 0.983

----------
- TEST NAME: chemical genetic growth profiling, strain panel (AID 1159580);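 further: tested at 20 µM; growth read once vehicle control cultures reached saturation at 30 °C; 1 = growth at the plate median or of vehicle wells; lower values mean less growth of the strain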
- PARTICULARS: S. cerevisiae deletion strains, growth OD, locus YMR129W, active compounds read low
Out of some 5,500 compounds screened, about 2,000 (36%) were called active. Another 18% or so got no clear call; they are omitted. Some of the results follow.
Assign normalized growth to each entry below.
# output: bare number, no unit

Query :: Write down normalized growth measured for item N[C@@H](CCC(=O)N[C@@H](CCSC(CC(=O)O)C(=O)O)C(=O)NCC(=O)O)C(=O)O (some centres undefined)
Result :: 0.99

Query :: Write down normalized growth measured for item CC[C@]12CCCN3CCc4c(n(c5ccccc45)[C@](O)(C(=O)OC)C1)[C@@H]32
Result :: 0.985

Query :: Write down normalized growth measured for item Oc1ccc(/C=C/c2cc(O)cc(O)c2)cc1
Result :: 0.996

Query :: Write down normalized growth measured for item C[C@](N)(Cc1ccc(O)c(O)c1)C(=O)O
Result :: 0.985

----------
- TEST NAME: chemical genetic growth profiling, strain panel (AID 1159580);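 further: tested at 20 µM; growth read once vehicle control cultures reached saturation at 30 °C; 1 = growth at the plate median or of vehicle wells; lower values mean less growth of the strain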
- PARTICULARS: S. cerevisiae deletion strains, growth OD, locus YLR342W, strain FKS1 (second series)
About 2,000 (36%) of roughly 5,500 compounds were called active. Roughly 18% stayed inconclusive and do not appear here. Cut-off read from the data, not from the text of the source: active = normalized growth mostly below about 0.91 (no sharp cut-off); inconclusive = no clear call, values can overlap the other calls; inactive = mostly above about 0.92. The list shows a part of the results.
// classify into 1 (active), 0 (inactive)

Query :: Query: recorded result category for COc1ccc(-c2cc(C(F)F)nn2-c2ccc(S(N)(=O)=O)cc2)cc1F in this test
Result :: 0

Query :: Query: recorded result category for CC[C@@H]1[C@@H](O)N2C3C[C@H]1C1C(O)[C@]4(C[C@@H]12)c1ccccc1N(C)[C@@H]34 (stereo not given in full) in this test
Result :: 0

Query :: Query: recorded result category for CC1(C)CC2C1CCC1(C)OC1CCC2(C)O (stereo not given) in this test
Result :: 0

Query :: Query: recorded result category for O=c1ccn([C@@H]2O[C@H](COP(=O)(O)OP(=O)(O)OP(=O)(O)O)[C@@H](O)[C@H]2O)c(=O)[nH]1 in this test
Result :: 0

Query :: Query: recorded result category for CC1(C)CC2C1CCC1(C)OC2(C)CCC1O (stereo not given) in this test
Result :: 0

Query :: Query: recorded result category for O=c1cccc2n1C[C@H]1CNCC2C1 in this test
Result :: 0

Query :: Query: recorded result category for COC(=O)[C@H]1[C@H]2C[C@@H]3c4[nH]c5cc(OC)ccc5c4CCN3C[C@H]2C[C@@H](OC(=O)c2cc(OC)c(OC)c(OC)c2)[C@@H]1OC in this test
Result :: 0

Query :: Query: recorded result category for O=C(O)c1cc(O)c(O)c(O)c1 in this test
Result :: 0

Query :: Query: recorded result category for CCn1cc(C(=O)O)c(=O)c2cnc(N3CCNCC3)nc21 in this test
Result :: 0

Query :: Query: recorded result category for CC1=CC(=O)CC(C)(C)C1(O)/C=C/C(C)=C\C(=O)O (stereo not given) in this test
Result :: 0

Query :: Query: recorded result category for CO[C@@H]1C[C@@H](C[C@H]2CC[C@H](C)[C@H]([C@@H](C)C(=O)O)O2)O[C@]2(O[C@](C)([C@H]3CC[C@@](C)(C4O[C@@H](C5O[C@@](O)(CO)[C@H](C)C[C@@H]5C)C[C@@H]4C)O3)C[C@H]2C)[C@@H]1C (stereo not given in full) in this test
Result :: 0

Query :: Query: recorded result category for NCc1ccc(S(N)(=O)=O)cc1 in this test
Result :: 0

Query :: Query: recorded result category for Cc1ccc(C(C)C)cc2c(C)ccc1-2 in this test
Result :: 0

Query :: Query: recorded result category for CCOP(=S)(OCC)SCCSCC in this test
Result :: 0

Query :: Query: recorded result category for CCCSP(=O)(OCC)SCCC in this test
Result :: 0

Query :: Query: recorded result category for COc1cc(C)c2c(c1C=O)Oc1c(c(C)c(O)c3c1C(O)OC3=O)OC2=O (stereo not given) in this test
Result :: 0

Query :: Query: recorded result category for O=C(O)c1cc(=O)c(O)c2c(O)c(O)ccc2c1 in this test
Result :: 0

Query :: Query: recorded result category for C=CCN1CC[C@]23c4c5ccc(O)c4OC2C(=O)CC[C@@]3(O)[C@H]1C5 (stereo not given in full) in this test
Result :: 0

Query :: Query: recorded result category for CCn1cc(C(=O)O)c(=O)c2ccc(C)nc21 in this test
Result :: 0

Query :: Query: recorded result category for COc1ccccc1-c1cc(=O)c2c(OC)cccc2o1 in this test
Result :: 0

Query :: Query: recorded result category for CC(=O)OCC(=O)[C@@]12OC(C)(C)O[C@@H]1CC1C3C[C@H](F)C4=CC(=O)C=C[C@]4(C)[C@@]3(F)[C@@H](O)C[C@@]12C (stereo not given in full) in this test
Result :: 0

Query :: Query: recorded result category for CCC(CCC(C)C1CCC2C3CC=C4C[C@@H](OC(C)=O)CC[C@]4(C)C3CC[C@]12C)C(C)C (stereo not given in full) in this test
Result :: 0

Query :: Query: recorded result category for CC[C@]12CCCN3CCc4c(n(c5ccccc45)C(=O)C1)[C@@H]32 in this test
Result :: 1

Query :: Query: recorded result category for O=C1O[C@@H](CO)[C@H](O)[C@@H](O)[C@@H]1O in this test
Result :: 0

Query :: Query: recorded result category for CC[C@]12CCCN3CCc4c(n(c5ccccc45)[C@](O)(C(=O)OC)C1)[C@@H]32 in this test
Result :: 0

Query :: Query: recorded result category for CS(=O)(=O)OCCCCOS(C)(=O)=O in this test
Result :: 0

Query :: Query: recorded result category for CC(=O)Oc1cc(C)c2c(c1C(OC(C)=O)OC(C)=O)Oc1c(c(C)c(OC(C)=O)c3c1C(OC(C)=O)OC3=O)OC2=O (stereo not given) in this test
Result :: 0

Query :: Query: recorded result category for CC[C@@H](C(=O)[C@@H](C)[C@@H](O)[C@H](C)[C@@H]1O[C@@H]([C@@H](CC)C(=O)O)CC[C@@H]1C)[C@H]1OC2(C=C[C@@H](O)[C@]3(CC[C@@](C)([C@H]4CC[C@](O)(CC)[C@H](C)O4)O3)O2)[C@H](C)C[C@@H]1C (stereo not given in full) in this test
Result :: 0

Query :: Query: recorded result category for Nc1nccs1 in this test
Result :: 0

Query :: Query: recorded result category for NC(=O)c1cnccn1 in this test
Result :: 0
